Value source: patent US20100184701A1

# target-or-system: T1, rat angiotensin 2 type 1 receptor (rat, UniProt P25095 1-359)
# T1 sequence (looked up): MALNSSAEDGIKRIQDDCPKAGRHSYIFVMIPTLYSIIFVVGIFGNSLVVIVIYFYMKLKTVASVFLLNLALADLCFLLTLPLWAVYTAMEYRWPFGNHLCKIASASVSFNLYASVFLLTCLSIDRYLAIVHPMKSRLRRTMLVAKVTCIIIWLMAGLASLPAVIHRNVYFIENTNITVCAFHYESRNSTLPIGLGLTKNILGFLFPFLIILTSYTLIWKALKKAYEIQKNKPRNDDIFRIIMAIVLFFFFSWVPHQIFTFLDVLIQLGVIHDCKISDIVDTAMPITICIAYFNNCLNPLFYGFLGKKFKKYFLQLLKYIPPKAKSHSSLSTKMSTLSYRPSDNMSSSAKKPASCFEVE
# test-protocol: cell-based or functional assay
Non-standard residues stand in square brackets, D forms with d. No end group written: not given here. Sar = CNCC(=O)O
reported-endpoint: IP One EC50

Please review the following examples before continuing.
{"columns": ["binder", "IP One EC50"],
 "data": [
  ["[Sar]RVYVH-NH2 (N-terminus assumed; SMILES CNCC(=O)N[C@@H](CCCNC(=N)N)C(=O)N[C@H](C(=O)N[C@@H](Cc1ccc(O)cc1)C(=O)N[C@H](C(=O)N[C@@H](Cc1c[nH]cn1)C(N)=O)C(C)C)C(C)C) [SEQ ID NO: 55]", "6.8 nM"],
  ["ARVYIHPA (NMAla (N-methyl-L-alanine) at 1; D-Ala at 8) [SEQ ID NO: 44]", "8.2 nM"],
  ["RVYIHPRVYIHPRVYIHP (cyclic, as printed: Cyclo(...)) [SEQ ID NO: 36]", "100 nM"],
  ["DRVYIHPG-OH [SEQ ID NO: 56]", "20 nM"],
  ["GRVYVHPA (Me2G (N,N-dimethylglycine) at 1) [SEQ ID NO: 31]", "13 nM"],
  ["XRVYYHP (Sar (sarcosine) at 1) [SEQ ID NO: 52]", "300 nM"],
  ["[Sar]RVYRHP-NH2 (N-terminus assumed; SMILES CNCC(=O)N[C@@H](CCCNC(=N)N)C(=O)N[C@H](C(=O)N[C@@H](Cc1ccc(O)cc1)C(=O)N[C@@H](CCCNC(=N)N)C(=O)N[C@@H](Cc1c[nH]cn1)C(=O)N1CCC[C@H]1C(N)=O)C(C)C) [SEQ ID NO: 45]", "26 nM"]
]}

Next up:
So, [Sar]RVYKHP-NH2 (N-terminus assumed; SMILES CNCC(=O)N[C@@H](CCCNC(=N)N)C(=O)N[C@H](C(=O)N[C@@H](Cc1ccc(O)cc1)C(=O)N[C@@H](CCCCN)C(=O)N[C@@H](Cc1c[nH]cn1)C(=O)N1CCC[C@H]1C(N)=O)C(C)C) [SEQ ID NO: 43] ? Its IP One EC50 was 260 nM
